Test: The drug is tested on Edwardsiella tarda strain: ATCC23685 for biotransformation. The drug concentrations were measured before and after a 12-h incubation by liquid-chromatography-coupled mass spectrometry (LC–MS)
Conditions: 2 µM
endpointLabel: Bacterial Biotransformation

# query: Bacterial Biotransformation of entry `COc1ccc([C@@H]2Sc3ccccc3N(CCN(C)C)C(=O)[C@@H]2OC(C)=O)cc1`
Compound NOT metabolized

# query: Bacterial Biotransformation of entry CN(CCOc1ccc(CC2SC(=O)NC2=O)cc1)c1ccccn1.O=C(O)/C=C\C(=O)O (centres undefined) [ROSIGLITAZONE MALEATE]
Compound NOT metabolized

# query: Bacterial Biotransformation of entry `OC(Cn1cncn1)(Cn1cncn1)c1ccc(F)cc1F`
Compound NOT metabolized

# query: Bacterial Biotransformation of entry COc1ccccc1OCC(O)CN1CCN(CC(=O)Nc2c(C)cccc2C)CC1 (centres undefined)
Compound NOT metabolized
